Listed here: items and their measured cytotoxicity at 10 µM.
Assay: Toxicity liver stage against HepG2, at 10uM
Format: cell-based
Set-up: test concentration 10 uM, cell line HepG2-A16-CD81EGFP
Settings: human, HepG2-A16-CD81EGFP cells; read-out: INHIBITION
All answers are understood in %, so give the number only.

INSERT INTO measurements (compound, valuetype, unitinfo, measvalue) VALUES
  ('Cc1ncc(CNC(=O)NC2CCN(C3CCCC3)CC2)s1', 'cytotoxicity at 10 µM', '%', -9.01),
  ('NS(=O)(=O)N1CCC(CSc2ccccc2)C1 (configuration not stated)', 'cytotoxicity at 10 µM', '%', -9.8),
  ('CCn1c(C2CCNCC2)nn(CCCc2ccccc2)c1=O', 'cytotoxicity at 10 µM', '%', 1.4),
  ('N#Cc1ccc(C(=O)N(Cc2ccncc2)C2CC2)cc1', 'cytotoxicity at 10 µM', '%', -8.53),
  ('COc1ccc(C(=O)N2CCOCC2c2[nH]ncc2C)cc1F (configuration not stated)', 'cytotoxicity at 10 µM', '%', 2.21);

INPUT: // lookup cytotoxicity at 10 µM for `CCc1ccc(S(=O)(=O)Nc2ccn(CC(=O)OC)n2)cc1`
OUTPUT: 7.22

INPUT: # cytotoxicity at 10 µM lookup, item COc1ccc2c(c1)OCC(Cc1cncc(N)c1)C2 (configuration not stated)
OUTPUT: -0.918

INPUT: Could you share which cytotoxicity at 10 µM value was measured for `O=C(CCc1ccco1)NS(=O)(=O)Cc1ccon1` ?
OUTPUT: 9.99

INPUT: Consider the compound `CCCn1cc(S(=O)(=O)N[C@H]2CN(C(C)=O)C[C@@H]2C2CC2)cn1` and give its measured cytotoxicity at 10 µM.
OUTPUT: -1.48

INPUT: I would be grateful if you could share the reported cytotoxicity at 10 µM for `Cc1[nH]c2ccccc2c1CCNC(=O)N1CCC2(C1)OCCO2` .
OUTPUT: 1.12

INPUT: Would you mind telling me what cytotoxicity at 10 µM value was observed for `Cn1ncc2c(N3CCC(F)(F)CC3)nc(-c3ccncc3)nc21` ?
OUTPUT: 9.74

INPUT: # get_value(readout='cytotoxicity at 10 µM', item= `O=C(O)Cn1ccc(=O)c2cc(F)ccc21` )
OUTPUT: -0.0342

---

Assay: Toxicity liver stage against HepG2, at 10uM
Format: cell-based
Design: test concentration 10 uM, cell line HepG2-A16-CD81EGFP
Details: human, HepG2-A16-CD81EGFP cells; read-out: INHIBITION
valueType: cytotoxicity at 10 µM (%)
Please state the figure in %; there is no need to write the unit.

In the examples that follow, each entry is paired with its recorded cytotoxicity at 10 µM.
INSERT INTO results (compound, valuetype, measvalue) VALUES
  ('CCc1nc(CN2CCOC(Cn3cncn3)C2)no1 (stereo not drawn)', 'cytotoxicity at 10 µM', -5.71),
  ('CN(C)CCn1c(=O)n(C)c(=O)c2ccccc21', 'cytotoxicity at 10 µM', -1.48),
  ('CC(C)COC1CC2(CCN(Cc3nccn3C)CC2)C1', 'cytotoxicity at 10 µM', -158),
  ('CC(=O)N1CC2(CCCN(Cc3ccc(Cl)cc3)C2)Cc2ccccc21 (stereo not drawn)', 'cytotoxicity at 10 µM', 10.6),
  ('COCC(=O)NC1CCCN(c2ccc(C)cc2)C1=O (stereo not drawn)', 'cytotoxicity at 10 µM', -0.82);

INPUT: GET /values?readout=cytotoxicity at 10 µM&item= `COCCOCCNC(=O)c1ccc(N2CCC(C)=N2)cc1`
OUTPUT: 7.42

INPUT: Could you tell me which cytotoxicity at 10 µM is on file for CCC(c1ccc(F)cc1F)S(=O)(=O)CCO (stereo not drawn) ?
OUTPUT: -137

INPUT: Fill in: cytotoxicity at 10 µM of CN(C)S(=O)(=O)c1ccc(CN2CCC(c3ccccc3)C2)o1 (stereo not drawn) is ___
OUTPUT: 17.5

---

Test: Toxicity liver stage against HepG2, at 10uM
Assay type: cell-based
Design: test concentration 10 uM, cell line HepG2-A16-CD81EGFP
Conditions: human, HepG2-A16-CD81EGFP cells; read-out: INHIBITION
valueType: cytotoxicity at 10 µM

INSERT INTO measurements (molecule, valuetype, measvalue) VALUES
  ('Cc1c(CN2CCC(C(=O)O)(n3ccnc3)CC2)oc2ccccc12', 'cytotoxicity at 10 µM', '-4.86%');

INPUT: Name the reported cytotoxicity at 10 µM value associated with the molecule `CN1CCN(C(=O)NCCNc2ncccn2)Cc2ccccc21`
OUTPUT: -4.47%

INPUT: Please look up its cytotoxicity at 10 µM: `CN(Cc1cc(C(C)(C)C)n[nH]1)C(=O)c1cn2ccsc2n1`
OUTPUT: -12.6%

INPUT: // cytotoxicity at 10 µM lookup, key: `CN(Cc1n[nH]c(=O)n1Cc1cccs1)S(C)(=O)=O`
OUTPUT: -4.2%

INPUT: Given the molecule Cc1nc(C)n(C2CCCN(C(=O)c3cncnc3C)C2)n1 (centres undefined) , what is its reported cytotoxicity at 10 µM?
OUTPUT: -2.48%

INPUT: cytotoxicity at 10 µM lookup needed for CC(=O)Nc1nc(CN(C)CC2CCCN2c2cccnn2)cs1 (centres undefined) , thanks.
OUTPUT: 15.1%

INPUT: Which cytotoxicity at 10 µM is listed for `Cc1ccoc1C1=NNC(=CN2CCn3c(nnc3C3CC3)C2)O1` ?
OUTPUT: 7.65%

---

Experiment: Toxicity liver stage against HepG2, at 10uM
Assay type: cell-based
Parameters: test concentration 10 uM, cell line HepG2-A16-CD81EGFP
Conditions: human, HepG2-A16-CD81EGFP cells; read-out: INHIBITION
valueType: cytotoxicity at 10 µM (%)
Kindly answer with a numeric value in %, unit omitted.

// below: answered compounds
INSERT INTO results (compound, measvalue) VALUES
  ('CC1CCC(NS(=O)(=O)CC(=O)Nc2ccc(N3CCCC3)cn2)CC1 (stereo unspecified)', 1.54),
  ('CCCn1ccnc1CN1CCC(O)(CN2CCCCC2)C1 (stereo unspecified)', -6.12),
  ('CN(C)CC(O)Cn1cc(NCc2ccc(Br)cc2)cn1 (stereo unspecified)', 7.48),
  ('COCCN(CC(F)F)c1cc(COC)nc2ncnn12', 9.08),
  ('Cc1cc(-c2nc(C3(NC(=O)OC(C)(C)C)CCC3)no2)on1', 5.98);

Here is another compound to look at.
INPUT: I am curious: what cytotoxicity at 10 µM value has been reported for `CCc1c(C(=O)N2CCN(c3cnccn3)CC2)cnn1C(C)(C)C` ?
OUTPUT: -13

---

Experiment: Toxicity liver stage against HepG2, at 10uM
Format: cell-based
Parameters: test concentration 10 uM, cell line HepG2-A16-CD81EGFP
Conditions: human, HepG2-A16-CD81EGFP cells; read-out: INHIBITION
In this section we review reported cytotoxicity at 10 µM values for a set of compounds.
Reply numerically in %, unit not repeated.

The cases that follow already have their cytotoxicity at 10 µM on record.
INSERT INTO assay_data (compound, valuetype, measvalue) VALUES
  ('Cc1nc(C(=O)N(CC2CCCO2)c2ccncc2)cs1 (centres undefined)', 'cytotoxicity at 10 µM', -7.3),
  ('O=C(c1occc1CN1C(=O)Cc2ccccc21)N1CC(O)C1', 'cytotoxicity at 10 µM', -4.43),
  ('OC(CNCCn1cccn1)COc1ccc2ccccc2c1 (centres undefined)', 'cytotoxicity at 10 µM', -26.4),
  ('CC(OCC(F)(F)F)C(=O)NCCN(C)C (centres undefined)', 'cytotoxicity at 10 µM', -3.17),
  ('Cc1nonc1C(=O)N1CC[C@@]2(O)CCN(C3CCCCC3)C[C@H]2C1', 'cytotoxicity at 10 µM', -132),
  ('O=C(CN1CCC2(CC1)NC(=O)c1cc(Br)ccc1N2)NC1CC1', 'cytotoxicity at 10 µM', 4.79),
  ('COCCNCc1cc2ccc(C)c(C)c2[nH]c1=O', 'cytotoxicity at 10 µM', 5.13),
  ('c1cnnc(N2CCCC2CNCc2cccs2)c1 (centres undefined)', 'cytotoxicity at 10 µM', -9.61),
  ('Cn1cc(NS(=O)(=O)CCOc2ccc(F)cc2)cn1', 'cytotoxicity at 10 µM', -0.77),
  ('COc1ccc(N2CCN(C(=O)C(C)n3cc(Br)cn3)CC2)cc1 (centres undefined)', 'cytotoxicity at 10 µM', 11.4);

INPUT: I have this compound here, `O=C(NCCc1ccccc1)N1CCC(C2OCCO2)CC1` , and I need its recorded cytotoxicity at 10 µM.
OUTPUT: -46.5

INPUT: What value of cytotoxicity at 10 µM has been recorded for this entry: `CCc1c(C(=O)N2CCN(CC(N)=O)CC2)cnn1C(C)(C)C`
OUTPUT: -1.77

INPUT: Tell me the measured cytotoxicity at 10 µM of CCN1CC(C(=O)NCCn2cccc2)CCC1=O (centres undefined) , please.
OUTPUT: -1.64
